# Protocol: in vivo
# Parameters: species or system female C3H/HeN mice
# Cond: mouse, plasma, iv, 40 mg/kg, Plasma#, calculated from values ≥ b.l.q. of 20 ng.ml^-1, 40 mg.kg^-1 i.v., read-out: Vdss
Experimental readout: Vd (L/kg)
Output spec: scalar in L/kg, unitless text.

For CO[C@H]1C(=O)[C@]2(C)[C@@H](OC)C[C@H]3OC[C@@]3(OC(C)=O)[C@H]2[C@H](OC(=O)c2ccccc2)[C@]2(O)C[C@H](OC(=O)[C@H](O)[C@@H](NC(=O)OC(C)(C)C)c3ccccc3)C(C)=C1C2(C)C [product Ia] , what is its reported Vd? 2.4
